Cited source for all entries: ChEMBL document CHEMBL3885861

Species: Rattus norvegicus
Experiment: Open TG-GATES - Regimen: Single
Format: toxicity, organism-based, Sprague-Dawley
Set-up: regimen Single, gender Male, age 6 weeks
Details: in vivo, po, 0 mg/kg, 6 h, tissue Plasma, route gavage, dose level Control

[
  {
    "MOLECULE": "O=NN(CCCl)C(=O)NC1CCCCC1 [LOMUSTINE]",
    "A/G": 2
  },
  {
    "MOLECULE": "CC[C@H]1[C@@H]2C[C@H]3[C@@H]4N(C)c5ccccc5[C@]45C[C@@H]([C@@H]2[C@H]5O)N3[C@@H]1O [AJMALINE]",
    "A/G": 2.2
  },
  {
    "MOLECULE": "ClC(Cl)(Cl)Cl [CARBON TETRACHLORIDE]",
    "A/G": 1.5
  },
  {
    "MOLECULE": "CC1=C(CC(=O)O)c2cc(F)ccc2/C1=C\\c1ccc([S+](C)[O-])cc1 (configuration not stated)",
    "A/G": 0.9
  },
  {
    "MOLECULE": "OCCOCCN1CCN(C(c2ccccc2)c2ccc(Cl)cc2)CC1 (configuration not stated) [HYDROXYZINE]",
    "A/G": 0.9
  },
  {
    "MOLECULE": "CCC1(c2ccccc2)C(=O)NC(=O)NC1=O [PHENOBARBITAL]",
    "A/G": 1.6
  },
  {
    "MOLECULE": "CCc1oc2ccccc2c1C(=O)c1cc(Br)c(O)c(Br)c1 [BENZBROMARONE]",
    "A/G": 2
  }
]
